# inhibition values compiled below
# experiment.description: ASC/caspase-1 reporter retest in S. cerevisiae at one dose, specificity check for NALP1 project (AID 488857)
# experimental.setup: S. cerevisiae ASC/Caspase-1, beta-galactosidase luminescence, 24 h; at 10 µM; hits give high values
The whole screen tested about 1,400 compounds, of which about 560 (40%) were called active. The set was probably picked from earlier hits. Some of the results follow.

Query: Return reported inhibition; argument: O=C(NC(CO)Cc1ccc([N+](=O)[O-])cc1)C(Cl)Cl (stereo not drawn)
Reply: 34.8% (inactive)

Query: What do you have for "C=CCn1c(=O)c2ccc(C(=O)NCc3ccccc3)cc2n(Cc2ccccc2Cl)c1=O" ?
Reply: 36.4% (inactive)

Query: Same read-out for "COC(=O)c1ccc(Oc2ccc(S(=O)(=O)N3CCCCC3)cc2N)cc1" ?
Reply: 97.8% (active)

Query: For "COc1ccc(C(C)C)cc1S(=O)(=O)n1cnc(C)c1" then?
Reply: 42.7% (inactive)

Query: Proceed to "Cc1cccc(/C(N)=N/OC(=O)c2ccc(Cl)cc2Cl)c1"
Reply: 32.9% (inactive)

Query: Okay, and "Cc1cccc(/C(N)=N/OC(=O)c2cccc3ccccc23)c1" ?
Reply: 52.9% (active)

* * *

# experiment.description: ASC/caspase-1 reporter retest in S. cerevisiae at one dose, specificity check for NALP1 project (AID 488857)
# experimental.setup: S. cerevisiae ASC/Caspase-1, beta-galactosidase luminescence, 24 h; at 10 µM
In all, about 1,400 compounds went through this assay and about 560 (40%) were called active.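 The calls were made as follows: active = mean inhibition over duplicate tests at 10 µM above 50%; inactive = the rest.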 The set was probably picked from earlier hits. The list shows a part of the results.
Respond with a class label; see 1.0 (active), 0.0 (inactive)

Consider the following illustrative entries.
compound	label.value
CC[N+]1(CC)CC2=Cc3c(ccc4ccccc34)CC2C1 (stereo unspecified)	0.0
CC1(C)COC(/C=C/c2ccc([N+](=O)[O-])cc2)=N1	1.0

Query: Status in this test for "Cc1ccc(C(=O)Oc2ccc3c(c2)ncn3C)cc1" ?
Reply: 1.0

Query: Same thing, different compound: "CCOC(=O)c1c(-c2ccccc2)nc2ccccn12"
Reply: 1.0

Query: Follow-up entry: "CCOC(=O)c1c(C)[nH]c(C)c1C(=O)COC(=O)c1cc2ccccc2cc1O"
Reply: 1.0

Query: Input "CCOC(=O)CSc1nnc(-c2ccccc2)c(=O)[nH]1"
Reply: 0.0

Query: // next record "CCOCCCn1c(=NC(C)=O)c(C(=O)OCC)cc2c(=O)n3ccccc3nc21"
Reply: 0.0

Query: Let us now turn to "COc1ccc(OC)c(/C=c2\sc3nc(-c4cccs4)nn3c2=O)c1"
Reply: 0.0

Query: Also check CCOc1ccccc1C1CC(=O)NC(SCC(=O)Nc2nccs2)=C1C#N (stereo unspecified)
Reply: 0.0

Query: Would you kindly repeat that for CCCNCC1COc2ccccc2O1 (stereo unspecified) ?
Reply: 0.0

Query: Likewise for N#CC1=C(N)Oc2n[nH]c(-c3cccs3)c2C1C1CCCCC1 (stereo unspecified) ?
Reply: 0.0

* * *

# experiment.description: ASC/caspase-1 reporter retest in S. cerevisiae at one dose, specificity check for NALP1 project (AID 488857)
# experimental.setup: S. cerevisiae ASC/Caspase-1, beta-galactosidase luminescence, 24 h; at 10 µM
The whole screen tested about 1,400 compounds, of which about 560 (40%) were called active.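 How the source made its calls: active means mean inhibition over duplicate tests at 10 µM above 50%; inactive means the rest.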 The set was probably picked from earlier hits. The list shows a part of the results.
Your answer must be one of the following: Yes = active, No = inactive

compound	label.value
O=C(COC(=O)CCSc1ccccc1)NCc1ccccc1Cl	No
Cc1ccc(NC(=O)/C=C\C(=O)NCC(=O)O)cc1C	No
CCC(C)c1ccccc1NC(=O)CN1CCN(C/C=C/c2ccccc2)CC1 (configuration not stated)	Yes
CCN(C(=O)COC(=O)c1cccnc1Nc1cccc(C(F)(F)F)c1)C1CCS(=O)(=O)C1 (configuration not stated)	No
O=C(CCSCc1cccc(Cl)c1)NCCc1ccccc1	Yes
COC(=O)/C=C\C(=O)Nc1cccc([N+](=O)[O-])c1	No
O=C(COc1ccccc1Cl)NCCC1=CCCCC1	No
COc1ccccc1OCC(=O)NCCSCc1ccccc1Cl	Yes

Now look at this one.
Query: For this compound, state the assay outcome: CC1=CCC2C(=O)N(Cc3ccccc3)C(=O)C2C1 (configuration not stated)
Reply: No

* * *

# experiment.description: ASC/caspase-1 reporter retest in S. cerevisiae at one dose, specificity check for NALP1 project (AID 488857)
# experimental.setup: S. cerevisiae ASC/Caspase-1, beta-galactosidase luminescence, 24 h; at 10 µM; hits give high values
About 560 (40%) of roughly 1,400 compounds were called active. The set was probably picked from earlier hits. Some of the results follow.
Outcome: Condition met for inhibition of at least 50%; Condition not met for anything lower.

Answered cases to consult:
compound	label.value
O=C(NCCc1csc(-c2ccccc2)n1)c1ccc(Br)o1	Condition met
O=C(CSCc1cnn(-c2ccccc2)c1-n1cccc1)NCc1ccc2c(c1)OCO2	Condition met
COc1ccccc1OCCCCN1CCN(c2ccccc2OC)CC1	Condition not met
CC(=O)c1c(C)oc2c1C(=O)c1ccccc1C2=O	Condition met
CC(C)c1ccc(CN2CCN(C(=O)CCl)CC2)cc1	Condition not met

Query: Given "O=C1C(Cl)=C(N2CCN(c3ccccc3[N+](=O)[O-])CC2)C(=O)c2ccccc21" , state whether its inhibition is at least 50%.
Reply: Condition met

Query: Try this compound too: "Cc1cc(OCCN2CCCC2)cc(C(C)C)c1"
Reply: Condition met

Query: Record: "Clc1ccc(C2=NNC(=NCc3ccc4c(c3)OCO4)SC2)cc1"
Reply: Condition not met

Query: Note, next up: "CCOC(=O)c1cc(-c2ccccc2)n(CC(=O)Nc2ccc(OC)c(OC)c2)c1C"
Reply: Condition not met

* * *

# experiment.description: ASC/caspase-1 reporter retest in S. cerevisiae at one dose, specificity check for NALP1 project (AID 488857)
# experimental.setup: S. cerevisiae ASC/Caspase-1, beta-galactosidase luminescence, 24 h; at 10 µM; hits give high values
Among all 1,400 compounds or so, about 560 (40%) were called active. So high a share suggests a set chosen from earlier hits. The list shows a part of the results.
readout.kind: inhibition (%)
Provide the reading as a plain figure in %.

Use these answered entries as a reference point.
molecule	readout.kind	result.number
COc1ccc(-c2cn3cccnc3n2)cc1Br	inhibition	78.9
Cc1ccc(Nc2nc(N)c([N+](=O)[O-])c(NCc3ccco3)n2)cc1C	inhibition	60.8
Cn1c(=O)c2c(nc(Sc3ncccn3)n2Cc2ccccc2Cl)n(C)c1=O	inhibition	26.6
CC(C)NC(=O)/C(C#N)=C/c1cccc(NC(=O)c2ccccc2Cl)c1	inhibition	63.5

Query: So what's the measured inhibition for this one? "Cc1n[nH]c(C)c1S(=O)(=O)N1CCN(C2CCCCC2)CC1"
Reply: 32.4

Query: Next: "CC(=O)Nc1ccc2nc(CN3CCC(CO)(CCc4ccccc4)CC3)ccc2c1"
Reply: 36.4

Query: Try "CC(C)(C)c1ccc(COn2c(=O)c(-c3ccco3)[n+]([O-])c3ccccc32)cc1" next.
Reply: 39.7

Query: Would you mind doing CC(OC(=O)CC(NC(=O)c1ccccc1Cl)c1ccccc1)C(=O)Nc1cccc(Cl)c1Cl (centres undefined) as well?
Reply: 34.5

Query: Cool, now "CCN1/C(=C/c2ccc3cc(C)ccc3[n+]2CC)Sc2ccccc21"
Reply: 100

Query: Ok, now "Cc1noc(C)c1S(=O)(=O)N1CCC(C(=O)N2CCC(N3CCCCC3)CC2)CC1"
Reply: 23.3

Query: Let us now turn to O=C1CC(Sc2nnnn2-c2ccccc2)C(=O)N1c1cccc(Cl)c1 (centres undefined)
Reply: 47.4

Query: Also "Brc1ccc(C=Nc2ccc(Nc3ccccc3)cc2)s1" ?
Reply: 56.1

Query: What do you have for CC1CCCN(c2nc(NCc3ccco3)nc(N)c2[N+](=O)[O-])C1 (centres undefined) ?
Reply: 62

Query: Likewise for "CCCCCOc1ccc(Cn2ccnc2)cc1[N+](=O)[O-]" ?
Reply: 64

Query: What do you get for "CC(C)(C)c1ccc(/C=C/C(=O)c2ccc(NC3=NCCCS3)cc2)cc1" ?
Reply: 53.1

* * *

# experiment.description: ASC/caspase-1 reporter retest in S. cerevisiae at one dose, specificity check for NALP1 project (AID 488857)
# experimental.setup: S. cerevisiae ASC/Caspase-1, beta-galactosidase luminescence, 24 h; at 10 µM; hits give high values
Screen size: about 1,400 compounds; about 560 (40%) were called active. The set was probably picked from earlier hits. The list shows a part of the results.
Catalogue of inhibition readings, one per entry.

Some entries whose results are on file:
compound	inhibition
Cc1c(C)c2cc(Cl)c(O)c(CN3CCCCC3)c2oc1=O	35.6% (inactive)
CCc1cc(OCCCCNCc2ccccc2)ccc1Cl	44.5% (inactive)
COC(=O)CSC1=C(C#N)C(=O)NC(c2ccccc2)S1 (configuration not stated)	39.5% (inactive)

Query: Using the record for "CCOC(=O)c1cc(-c2ccc(OC)cc2)nc2c1c(C)nn2CCC#N" , report its inhibition.
Reply: 49.6% (inactive)

Query: Similarly, "CCc1oc2ccccc2c1C(=O)CCN1CCCCC1" ?
Reply: 66.5% (active)

Query: Try CC(C)CCN(C(=O)Nc1ccccc1)C(C)c1cccs1 (configuration not stated) next.
Reply: 42.2% (inactive)

The values you see were collected from PubChem BioAssay AID488857.
